Molecular target: T1, recombinant human IL-13 (human, UniProt P35225 35-146, limits assumed)
T1 construct: Bought reagent; also called wild type IL-13
T1 sequence (P35225 35-146 limits assumed): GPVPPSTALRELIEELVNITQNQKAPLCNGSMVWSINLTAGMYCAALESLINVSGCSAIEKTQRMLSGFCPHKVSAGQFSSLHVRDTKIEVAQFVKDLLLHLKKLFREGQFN
Assay: SPR Biacore 3000, antibody captured, cytokine in solution
Description: Surface plasmon resonance technology on a Biacore 3000 (GE Healthcare) was used for detailed kinetic characterisation of purified anibodics. […] The analysed antibody was captured with an adjusted RU value that would result in maximal analyte binding of 30 RU at a flow rate of 10 μl/min. […] Kinetic parameters were analysed and calculated in the BIAevaluation program package using a flow cell without captured antibody as reference. […]
result-type: Kd (pM)
Write it as a number; the unit pM goes unstated.

Worked cases, Kd given:
* huB-B13 VL3 × VH3 (antibody, V domains shown, Expressed as a whole antibody, purified on Protein A; also called humanized B-B13 VL3xVH3) VH: EVQLKESGPGLVAPGGSLSITCTVSGFSLTDSSINWVRQPPGKGLEWLGMIWGDGRIDYADALKSRLSISKDSSKSQVFLEMTSLRTDDTATYYCARDGRFPYAMKFWGQGTSVTVSS VL: DIVLTQSPASLAVSLGQRATISCRASESVDSYGQSYMHWYQQKAGQPPKLLIYLASNLESGVPARFSGSGSRTDFTLTIDPVQAEDAATYYCQQNAEDSRTFGGGTKLEIK | 189
* huB-B13 VL3 × VH1 (antibody, V domains shown, Expressed as a whole antibody, purified on Protein A; also called humanized B-B13 VL3xVH1) VH: EVQLKESGPGLVAPGGSLSITCTVSGFSLTDSSINWVRQPPGKGLEWLGMIWGDGRIDYNDALKSRLSISKDNSKSQVFLEMNSLRTDDTATYYCARDGYFPYAMDFWGQGTSVTVSS VL: DIVLTQSPASLAVSLGQRATISCRASESVDSYGQSYMHWYQQKAGQPPKLLIYLASNLESGVPARFSGSGSRTDFTLTIDPVQAEDAATYYCQQNAEDSRTFGGGTKLEIK | 172

Let's switch to this binder now.
Task item: If you can, please state the reported Kd value of huB-B13 VL1 × VH3 (antibody, V domains shown, Expressed as a whole antibody, purified on Protein A; also called humanized B-B13 VL1xVH3) VH: EVQLKESGPGLVAPGGSLSITCTVSGFSLTDSSINWVRQPPGKGLEWLGMIWGDGRIDYADALKSRLSISKDSSKSQVFLEMTSLRTDDTATYYCARDGRFPYAMKFWGQGTSVTVSS VL: DIVLTQSPASLAVSLGQRATISCRASESVDSYGNSYMHWYQQKAGQPPKLLIYLASNLESGVPARFSGSGSRTDFTLTIDPVQAEDAATYYCQQNNEDPRTFGGGTKLEIK .
Reply: 205
